The measurements presented in this section are drawn from the Human Domainome abundance scans (Beltran et al. 2025).

Hi there, I'd appreciate the recorded abundance fitness for every entry that follows.
B1: Pre-mRNA-processing factor 40 homolog B, residues 274 to 332; numbered along this chain, Q6NWY9 (parent)
chain: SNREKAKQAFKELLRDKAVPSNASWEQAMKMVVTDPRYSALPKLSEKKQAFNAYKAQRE

# Variants of: B1
# Test: abundance fitness (aPCA) (normalised: wild type 0, dead -1); higher = more abundant; growth selection in yeast, the domain comes from the species named
# Condition: Homo sapiens
Write the value as a bare number.

Record "K48P" , field abundance fitness: -0.306

Record "N22D" , field abundance fitness: 0.05

Record "M29P" , field abundance fitness: -0.103

Record "E59V" , field abundance fitness: 0.042

Record "S1T" , field abundance fitness: -0.032

Record "E12Q" , field abundance fitness: -0.249

Record "Q49R" , field abundance fitness: -0.116

Record "A50M" , field abundance fitness: -0.076

Record "K48E" , field abundance fitness: -0.344

Record "E46Y" , field abundance fitness: -0.755

Record "K47R" , field abundance fitness: -0.142

Record "P42G" , field abundance fitness: -0.156

Record "S45A" , field abundance fitness: -0.136

Record "A9F" , field abundance fitness: -0.563

Record "M29K" , field abundance fitness: 0.166

Record "A6D" , field abundance fitness: -0.002

Record "A56K" , field abundance fitness: -0.015

Record "A28V" , field abundance fitness: -0.277
